All figures here come from patent US11814367B2.

Measured target: hGYS1 enzyme (recombinant hGYS1/GN1 protein) (Homo sapiens (Human))
Sequence (P13807 whole entry): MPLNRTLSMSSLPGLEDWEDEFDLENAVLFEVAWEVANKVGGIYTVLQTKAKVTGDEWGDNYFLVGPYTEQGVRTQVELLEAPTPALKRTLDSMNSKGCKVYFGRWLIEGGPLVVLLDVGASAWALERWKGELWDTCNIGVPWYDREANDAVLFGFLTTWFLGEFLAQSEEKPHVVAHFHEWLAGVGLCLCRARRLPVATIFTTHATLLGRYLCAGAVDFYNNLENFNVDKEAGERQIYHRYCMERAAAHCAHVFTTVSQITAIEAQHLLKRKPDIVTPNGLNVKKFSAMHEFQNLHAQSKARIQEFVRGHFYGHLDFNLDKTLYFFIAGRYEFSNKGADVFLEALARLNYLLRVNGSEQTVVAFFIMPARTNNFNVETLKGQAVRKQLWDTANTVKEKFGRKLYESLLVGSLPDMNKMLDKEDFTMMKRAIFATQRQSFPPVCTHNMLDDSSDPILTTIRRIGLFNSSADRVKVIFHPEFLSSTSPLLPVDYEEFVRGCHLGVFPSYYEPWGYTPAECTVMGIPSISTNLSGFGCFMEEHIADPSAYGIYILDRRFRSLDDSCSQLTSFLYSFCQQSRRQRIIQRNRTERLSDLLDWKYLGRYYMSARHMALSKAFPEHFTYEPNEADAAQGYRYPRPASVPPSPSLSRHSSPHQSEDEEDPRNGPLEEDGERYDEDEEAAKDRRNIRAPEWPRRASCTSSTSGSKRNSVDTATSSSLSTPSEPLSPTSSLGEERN
Sequence (P46976 whole entry partner): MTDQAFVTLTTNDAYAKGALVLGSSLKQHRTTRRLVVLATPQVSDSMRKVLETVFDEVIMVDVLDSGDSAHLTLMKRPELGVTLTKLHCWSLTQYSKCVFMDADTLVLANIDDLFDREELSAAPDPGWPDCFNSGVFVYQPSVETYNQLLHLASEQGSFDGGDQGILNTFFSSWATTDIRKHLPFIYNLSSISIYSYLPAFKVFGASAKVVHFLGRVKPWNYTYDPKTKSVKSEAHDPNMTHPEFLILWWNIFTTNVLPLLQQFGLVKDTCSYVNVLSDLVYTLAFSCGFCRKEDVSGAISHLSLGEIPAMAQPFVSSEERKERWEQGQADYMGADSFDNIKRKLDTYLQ
Assay details: GYS1 coupled enzyme assay (PK/LDH)
Condition details: hGYS1/GN1 50 nM, UDP-Glucose 0.8 mM, G6P 1 mM; geometric mean of at least 2 runs
Excerpt: The GYS1 coupled enzyme assay is a kinetic biochemical assay that indirectly quantifies the rate of glycogen synthesis by coupling the conversion of GYS1 substrate UDP-glucose into UDP with downstream enzymatic reactions. UDP is released from UDP-glucose as glucose monomers are linked into the growing glycogen strand by GYS1. […] Oxidation of NADH to NAD+ can be measured continuously with a plate reader by quantifying the decrease in NADH absorbance at 340 nm over time. […]
Assay endpoint: IC50 (µM)

Molecule	Assay value
CC(C)c1ccc([C@@H](NC(=O)[C@@H]2C[C@@H](F)CN2C(=O)Cn2nncc2C(F)(F)F)c2ccccc2)cc1F [Compound 322]	0.013
CCn1ncc(N(C)CC(=O)N2C[C@H](F)C[C@H]2C(=O)N[C@@H](c2ccccc2)c2ccc(C3CC3)c(F)c2)n1 [Compound 474]	0.043
CC(C)c1ccc([C@@H](NC(=O)[C@@H]2C[C@@H](F)CN2C(=O)Cc2ccnnc2)c2ccccc2)cc1F [Compound 342]	0.034
CC(C(=O)N1C[C@H](F)C[C@H]1C(=O)N[C@@H](c1ccccc1)c1ccc(C2(C)CC2)c(F)c1)n1cnc2ccccc21 (single isomer, unassigned) [Compound 567]	0.642
CC(C)c1ccc([C@@H](NC(=O)[C@@H]2C[C@@H](F)CN2C(=O)CCn2ccnn2)c2ccccc2)cc1 [Compound 11]	0.091
CC(C)c1ccc([C@@H](NC(=O)[C@@H]2C[C@@H](F)CN2C(=O)Cn2cnc3ccccc32)c2ccccc2)cc1F [Compound 354]	0.005

###

Measured target: hGYS1 enzyme (recombinant hGYS1/GN1 protein) (Homo sapiens (Human))
Assay details: GYS1 coupled enzyme assay (PK/LDH)
Condition details: hGYS1/GN1 50 nM, UDP-Glucose 0.8 mM, G6P 1 mM; geometric mean of at least 2 runs
pIC50: −log10 of the molar value.
# pIC50 per record follows
Assay endpoint: pIC50

                                    molecule  assay_endpoint  assay_value
 0  CC(=O)N1CCC2(CCCC2C(=O)N2C[C@H](F)C[C@H]2C(=O)N[C@@H](c2ccccc2)c2ccc(C(C)C)cc2)C1 (stereo partly shown)           pIC50         6.13
 1  C[C@H]1CC[C@@H](C(=O)N[C@@H](c2ccccc2)c2ccc(C3CC3)c(F)n2)N1C(=O)Cc1cnn[nH]1           pIC50         6.91
 2  CC(C)c1ccc([C@@H](NC(=O)[C@@H]2C[C@@H](F)CN2C(=O)Cc2cn(C)nn2)c2ccccc2)cc1F           pIC50         7.82
 3  CC(C)c1ccc([C@@H](NC(=O)[C@@H]2C[C@@H](F)CN2C(=O)Cc2ccn(C)n2)c2ccccc2)cc1           pIC50         7.41
 4  O=C(N[C@@H](c1ccccc1)c1ccc(C2CC2)c(F)c1)[C@@H]1C[C@@H](F)CN1C(=O)Cc1noc(=O)[nH]1           pIC50         6.86
 5  CCC(C)c1ccc(C(NC(=O)[C@@H]2C[C@@H](F)CN2C(=O)Cc2cnn[nH]2)c2ccccc2)cc1F (single isomer, unassigned) [Compound 676]           pIC50         6.26
 6  O=C(NC(c1ccccc1)c1ccc(C2CCC2)c(F)c1)[C@@H]1C[C@@H](F)CN1C(=O)Cn1cnnn1 (single isomer, unassigned)           pIC50         7.00
 7  O=C(N[C@@H](c1ccccc1)c1ccc(C2CC(F)(F)C2)c(F)c1)[C@@H]1C[C@@H](F)CN1C(=O)Cn1cnc2ccccc21           pIC50         8.22
 8  CC(=O)N1CCC[C@H]1C(=O)N[C@H](c1ccc(C(C)C)cc1)c1ccccc1C           pIC50         5.84
 9  CC(C)c1ccc([C@@H](NC(=O)[C@@H]2C[C@@H](F)CN2C(=O)Cn2cc(N(C)C)nn2)c2ccccc2)cc1F           pIC50         7.92
10  Cc1n[nH]c(CC(=O)N2C[C@H](F)C[C@H]2C(=O)N[C@@H](c2ccccc2)c2ccc(C(C)C)cc2)n1           pIC50         7.60
11  CCn1cc(CC(=O)N2C[C@H](F)C[C@H]2C(=O)N[C@@H](c2ccccc2)c2ccc(C3CC(F)(F)C3)c(F)n2)cc(C)c1=O           pIC50         8.30
12  O=C(N[C@@H](c1ccccc1)c1ccc(C2CC2)c(F)n1)[C@@H]1C[C@@H](F)CN1C(=O)Cn1nnnc1C(F)(F)F           pIC50         6.99
